Values from the DeepSol protein solubility set

assay_method_text: soluble on expression in E. coli; label from the status in PepcDB or PDB records
observation_type: soluble on expression in E. coli

sequence_entry	soluble on expression in E. coli
MLAAWLGCVLPAGAGLPVETLRVPPGFRVELLTEAMPSAREMALSPAGILYVGSRTGKVYALPLQVPGATVRVVASGLEQPVGVAWRDGSLYVSAVSRVVRLDRIDSRLDDPPVPVVVSDRFPTETHHGWKFIAFGPDGKLYVPVGAPCNVCHRDEDRYANLMRMNADGSSLEVVARGIRNTVGFDWHPVTHELWFTDNGADMMGDDVPDDELNRITAPGQHFGYPFCHAGDVPDPEFGAGHPCSRYVPPVGKLGAHVAALGMRFYTGSNFPQAYRHNLFIAEHGSWNRSSKVGYRVVRVVLDAAGKVVRQEPFVEGWLRGERAWGRPVDVLVAPDGSLLVSDDYAGAVYRVRYTGKLEHHHHHH	soluble
MCLVALAWKTHPRWRLLLAGNRDEFHERPTAPLAQWAAPAERVLAGRDLRSGGSWVGLGLDGRAAVVTNVRDPLATASGRSRGHLIADYLSGSADAATYARELAAAGQEFPPFNLLLCDAERCEHLSNHPALARALAPGIHGMSNGPLDAHWPKTTALTHALAAWCDSGSDDLQPLWTALANPATAADADLPHTGVDRATERLLSAAFIRGASYGTRASTIVAVDHHGHGFIHERRFGPDGVFQGETRLDVAGMHLEHHHHHH	not soluble
MSLDSQQKLAAQVTTPLTLSGDNQQAVAIFDQADPRIRIVYFGFTRCPDVCPTSLAMLSAALNQVDDKTKAQLRPMFISLDPERDDAKLAAQYAHYFHPMIEGLSGSVATTNQIAQKYGVIFRKTELPNSELKYTLDHSSYFYFLQPDGTLINKVPHTQDPTPIVDAIKKVIQEGHHHHHH	soluble
MGHHHHHHSHMVTMEELREMDCSVLKRLMNRDENGGGAGGSGSHGTLGLPSGGKCLLLDCRPFLAHSAGYILGSVNVRCNTIVRRRAKGSVSLEQILPAEEEVRARLRSGLYSAVIVYDERSPRAESLREDSTVSLVVQALRRNAERTDICLLKGGYERFSSEYPEFCSKTKALAAIP	not soluble
MGHHHHHHGGHMSLPKQIDHEKRRKQIAEATWRVILERGMEGASARNIAKEAGLSLGALRHYFSTQDELLAFAMKLVQEKVTDRIKDIAVRDLLPKEKVLQILLEMVPTNEETIREMEVWFAFTAYARHKKDMFDASHDGIFSGMRNLIAYLDESDLLKQNADKDIEAERLYALVDGLALHAMLDPVRVNKDRIKRVIMQHVESICVEDTRETQKRHPEGGS	soluble
MDIMLVLWNGTPPMTRPEIEKVINTKKKLASTTILSLLTRLESKNFVEVTKQGKLNLYTPLVSQSDYQAHESQSVLEKLYGNSLKKFVTSLYQGKKISSEEIHELSDFLKELEDGEE	not soluble

Would you kindly look at the next entry?
## Input Which soluble on expression in E. coli reading was recorded for the sequence `MQFHIDDMTCGGCASTVKKTILTLDANATVRTDPATRLVDVETSLSAEQIAAALQKAGFPPRER` ?
## Output not soluble

----------
assay_method_text: soluble on expression in E. coli; label from the status in PepcDB or PDB records

sequence_entry	soluble on expression in E. coli
SATQIPSTISILATSDIHGNVLNYDYATGKAPTNTQGLAKVSSYVNSVRASKPNVMLIDDGDTIQGTPLSYYYDKIDTTSEYPLMKIMGAMKYDTWTLGNHEFNYGLPTLNRVISDARKENINVLSANTYNSDNTNFVNPYYIKTFNINGKTVNVGILGLTTKCIPDWEDPSHYAGLHFNDLVDEAKLWVPRMKAAGANVVIVAAHSGEEGAADTIPENQIKAIATNVSGIDAIVAGHAHVTVNDTSLKNPNGKTVPVVEPNKWGTFVSQIDITLDNSGNASTINTQNVKMTDSIPEDPNIVNIIQPYQNKTLDYIST	not soluble
MKKAVVLLSGGMDSATTLAIARQSGFACYALSIDYGQRHVAELAAAARIGQSLQVSDHQFLKLDLAVLASSVLTDISATVPLHGTSTGIPVTYVPARNTIMLALALAWAEVLGSHDIFIGVTAVDYSGYPDCRRDYIDAFEKMANLATKAGREGMVLTVHAPLIDLPKREIIQCGMELGIDYGLTVSCYQADEAGYACGQCDACHIRRAGFEAADIPDPTCYRNKQIS	not soluble
MAIKDLFNNFFLMDDEEEVESPEERQRRVVQNEENETNNVQQNQPQQSERSYSNQSKLKTVPQKKTTRNYNSEERNVRMNQPPSKSNGKNVVTMNQTSQSYSGYESSKMCLFEPRVFSDTQDIADELKNRRATLVNLQRIDKISAKRIIDFLSGTVYAIGGDIQRVGTDIFLCTPDNVEVAGSITDHIEQMESQHYELEHHHHHH	not soluble

----------
assay_method_text: soluble on expression in E. coli; label from the status in PepcDB or PDB records

sequence_entry	soluble on expression in E. coli
MGSDKIHHHHHHMIIEHARDMLKRERLFFDKMQAHIGEVNGTISIGCSSLIGQTLLPEVLSLYNAQFPNVEIQVQVGSTEQIKANHRDYHVMITRGNKVMNLANTHLFNDDHYFIFPKNRRDDVTKLPFIEFQADPIYINQIKQWYNDNLEQDYHATITVDQVATCKEMLISGVGVTILPEIMMKNISKEQFEFEKVEIDNEPLIRSTFMSYDPSMLQLPQVDSFVNLMASFVEQPKA	not soluble
MGSDKIHHHHHHMNQKTRLTLILDELKTHPSLSLKDIMQLTGTSRDTARRDIVKLAAHNLAERNYGGISRPNTFNKLDQYLDRDDDLLQTKRALAHTASSYLLNDALLFLDISTTVACLPQYLQSKHPGMIVTNSLDIADQALRHSNFQTRILGGTLDAQQRCVQGADSILALHKFRFTTTVLSCAGLTADGVYYAYESDIALKETLRAQSDRLVLLFDHTKVNVSHNFNLLALSDFDYFVTDQPLPDNLATKIAPDKLIYL	not soluble
MALEYVVTKRVFGFDKDKNEKYVAKSVRSGRVSFSKMCGKVSRLCGVHRKVVDLVVSGLVDMMAEDIDDGKSVQMGEFGIFSPTIRAKSADDEKEVSSKSIVQRKILFYPGKIFKTTLDDMSITRRAELDTDYTDGSSNNGSGSEKPNPGGDGGKDDEEAPDPTV	not soluble

----------
assay_method_text: soluble on expression in E. coli; label from the status in PepcDB or PDB records
observation_type: soluble on expression in E. coli

In the examples that follow, each entry is paired with its recorded soluble on expression in E. coli.
sequence_entry	soluble on expression in E. coli
MGSDKIHHHHHHFGKQSKPTPNFAKKSDAYSADDDRVPNLVDDDEEEIIGDEEDDVNQPGPSGSQSNPEPQDEEENAEQQSANSSQSSAAEEEDDEHVVPENEPVKPTEEFAKKSPKNTGGAKRRTARRGD	not soluble
SASMAGPDHLFNLRNHFYLGAYQAAINNSEIPNLSQEDIVERDCLVHRAYIALGSYQLVISEIDEAAATPLQAVKLLAMYLSSPENKESTISSLREWLADPTVGNNAIIRLIAGTIFMHEEDYNEALKHTHSGGTMDLHALNVQIFIKMHRSDFAEKQLRVMQQIDEDHTLTQLASAWLNLAVGGSKIQEAYLIFQDFSEKYPMTSLILNGKAVCCMHMGNFEEAETLLLEALNKDAKDPETLANLVVCSLHVGKSSSRYLNQLKLSHPEHVLVKRAASAEDNFERALQSFA	soluble
MAVTVDDIKLSLRIDVTEDDPMIKSYLDAAKDYVQTAVSKNEDLTIYKQYDFAVSLLTQFWYQNRVTDMTKTPYQVVSMIQQLRGLVAG	not soluble
MDVTDKIRPWMKECRLCPRNCGADRMAGQKGFCGTDTEIMVARAALHMWEEPCISGKEGSGAVFFSGCSLGCNFCQNRRISRGQRGKKITQEHLVELFFQLQEQGANNINLVTAGHFLPQVAVALEMAKEQGLHIPVVYNSSGYEKAKTLKMLDGLVDIYLPDFKYMDAVLAKKYSHAQDYPEIAKEALSEMVRQVGEAEFDSRGMMKKGVIVRQLLLPGHVKDAKNVLKYLYETYGDRIYISMMNQYTPMPAMKDDPQLSRKVTDREYERLIDYAISLGLKNGFMQEGETAKESFIPEFDGEGV	not soluble

Batch of 2 sequences: report soluble on expression in E. coli for each.
1. MSLEATIRLGSSLPLTGHARYLGVETLRGALAYINHVNDSGGVHGRRIELDARDDGYDPPRCLANTQEQLISGEVFALTCYVGTPTTMRILPLVDEARIPLVGAFTGANGLRDPFSRYVFNVRASYYQETDAAVRHLVHDLGLTRIAVFYQYDAYGFDGLTGTELALRELGLAPVARGSYARGTDNIEDGLHRIIASDAEAVLMVGTSEPTARFIRMAEEAGFDAVYHALSFTGAEELARLLGHTDAKVLLSQVVPPPDAPEAPAILGCTTEYVNLLKRYYPDATPSAIGLEGYINARILVEGLRRAGPDLTREGFVRALESLRDYPLGGRTVVSFSPESRQGMGSVYFTRLVGGRFELMREAGAPPSAARPASNKGEGHHHHHH
2. MGSDKIHHHHHHAENNDDCFRGVPLQVKLPAGILSETMQDINIYVFDGSDRLLDILPIRSLEPVILSYPGIPSLHCIAWGNTQDGTMYVSPLKTGDPLSAGFISLKPSAVTRAQKSIFISPTDLFYGELNVDNTSTSNRIEEKEMSVSRMVASMNITIRGLELLSQSNEGVYSIVVHETASRVDFEGRYGGDPASYAFSPRFEAGKDYIIPPFNLFPTTVGSGISIDIYRNGSLLRSISTDSGNQPILPVVGKTLNVLLNFRLDVDVELALTGWGEEYIWKEYN

## Output
1. soluble
2. not soluble
